Listing of recorded protein stability index by entry.
B1: WDR88 (parent)
chain: LLTITKAHSNAISNCCFTFSGHFL

variants of: B1; experiment: protein stability index of a GFP-peptide fusion (GPS, HEK-293T) (PSI 1-6); higher = more stable; details: c terminus: a fixed tail appended;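 note: lentivirally expressed fusions sorted by FACS into six bins by GFP to DsRed ratio, PSI derived from sequencing read proportions per bin multiplied by bin number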
Lab note: jot the number down without any unit.

Recorded results for 5 variants are shown here.
[
  {
    "variantCode": "F23N",
    "resultNumber": 1.99
  },
  {
    "variantCode": "I4R",
    "resultNumber": 2.4
  },
  {
    "variantCode": "N10R",
    "resultNumber": 2.99
  },
  {
    "variantCode": "A7N",
    "resultNumber": 2.1
  },
  {
    "variantCode": "F19D",
    "resultNumber": 2.38
  }
]

Task: What protein stability index value was documented for this variant, A11H ?
Result: 2.82

Task: What protein stability index value was documented for this variant, F17M ?
Result: 2.29

Task: What protein stability index value was documented for this variant, A7D ?
Result: 1.86

Task: What protein stability index value was documented for this variant, F19S ?
Result: 2.56

Task: What protein stability index value was documented for this variant, K6Y ?
Result: 1.83

Task: What protein stability index value was documented for this variant, N14L ?
Result: 4.15

Task: What protein stability index value was documented for this variant, L1D ?
Result: 1.67

Task: What protein stability index value was documented for this variant, L1C ?
Result: 2.81

Task: What protein stability index value was documented for this variant, A7H ?
Result: 3.42

Task: What protein stability index value was documented for this variant, F19T ?
Result: 2.52

Task: What protein stability index value was documented for this variant, S13Q ?
Result: 3.54

Task: What protein stability index value was documented for this variant, N14I ?
Result: 3.89

Task: What protein stability index value was documented for this variant, S20W ?
Result: 2.06

Task: What protein stability index value was documented for this variant, L1F ?
Result: 2.52

Task: What protein stability index value was documented for this variant, G21R ?
Result: 1.97

Task: What protein stability index value was documented for this variant, K6L ?
Result: 3.35

Task: What protein stability index value was documented for this variant, S9T ?
Result: 2.15

Task: What protein stability index value was documented for this variant, T5F ?
Result: 4.83

Task: What protein stability index value was documented for this variant, T5N ?
Result: 1.67
